- Test Target: HLA-B*51:01
- Assay Name: IEDB peptide-MHC binding, purified MHC/competitive/radioactivity; filed as Kd, often an IC50 or EC50 that approximates it; bounds were set here for any values at or beyond the usual limits of such assays
- Condition Context: source organism: Dengue virus 1 Brazil/97-11/1997
Experimental Readout: Kd

Answer with the recorded Kd for the sequence listed here: "MGLDKGWPI"
≥ 44.7 µM

Supply Kd value. Item: "LPDTIETLML"
19.3 µM

Supply measured Kd of "FSRENSLSGV" in your reply.
7.58 µM

Return Kd (reported value) for this sequence: "FPLCLSTTSQ"
≥ 39.6 µM

Answer with the recorded Kd for the sequence listed here: "LALGCYSQV"
0.567 µM

All figures here come from the Immune Epitope Database (IEDB).
